All figures here come from paper PMC3169606.

Biological target: T1, Pub1p R3 (RRM3, TRRM) (Saccharomyces cerevisiae, UniProt P32588 315-414)
T1 sequence: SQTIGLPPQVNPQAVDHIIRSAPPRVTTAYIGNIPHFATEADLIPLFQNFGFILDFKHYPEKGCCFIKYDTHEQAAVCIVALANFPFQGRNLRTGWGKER
Assay: NMR titration; 1:1 protein:RNA; 25 mM potassium phosphate pH 7.0 (6.5-7.0 in general NMR methods), 25 mM NaCl, 0.5 mM DTT, 25 C; 100 µM protein, RNA up to 400 µM (R3) or 1:1 (R12)
Conditions: protein: recombinant; tags: TrxA-6xHis tag removed by TEV; chain copies: 2; single strand
readout_label: Kd (µM)
Give the value, in units of µM, as a plain number.

Q: Entry AGAGAGAG (ssRNA) [(AG)4] has what Kd?
Result: 88.3

Q: Now consider CUCUCUCUCUCU (ssRNA) [(CU)6] .
Result: 18.8
